- Tested on: UACC-62 melanoma
- testDescription: NCI tumour cell line growth inhibition, 48 h; in the data active = GI50 below about 0.43 µM; inactive = the rest
Bench note: report the call from 1 (yes) (active), 0 (no) (inactive)

// below: answered compounds
CC1=C2C(=C[C@@](C)(COS(C)(=O)=O)[C@@H]2O)C(=O)[C@](C)(O)C12CC2
1 (yes)
C#Cc1nc(C(=O)NCCCCCCC(=O)NO)cs1
0 (no)
O=C(/C=C/c1csc(Br)n1)NO
0 (no)

What was the test verdict on `COc1ccc(N2CCN(C3=C(Cl)C(=O)c4ncccc4C3=O)CC2)cc1` ? 0 (no)

---

# reported GI50; entries follow
- Test system: COLO 205 colon
- testDescription: NCI tumour cell line growth inhibition, 48 h

Can you share its GI50? I mean this compound: `C#Cc1nc(C(=O)NCCCCCCC(=O)NO)cs1` 691 nM

// next record `CC1=C2C(=C[C@@](C)(COS(C)(=O)=O)[C@@H]2O)C(=O)[C@](C)(O)C12CC2` 761 nM

Okay, and `COc1ccc(N2CCN(C3=C(Cl)C(=O)c4ncccc4C3=O)CC2)cc1` ? 2010 nM

Next: `O=C(/C=C/c1csc(Br)n1)NO` 1750 nM
